Give measured self-cleavage for each item. Keep answers brief.
B1: Hairpin Ribozyme (parent)
chain: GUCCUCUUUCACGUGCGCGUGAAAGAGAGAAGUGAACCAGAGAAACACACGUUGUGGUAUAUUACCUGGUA

- Variants of: B1
- test.details: self-cleavage, relative activity (ratio to wild type); higher = more cleavage; co-transcriptional
Respond numerically, and do not add a unit to the figure.

Consider the variant shown here: A47G U52C What is its recorded self-cleavage? 0.124

Consider the variant shown here: A45C C48G What is its recorded self-cleavage? 0.188

Consider the variant shown here: G15U U55A What is its recorded self-cleavage? 0.304

Consider the variant shown here: U2C U58C What is its recorded self-cleavage? 0.175

Consider the variant shown here: A30C A41G What is its recorded self-cleavage? 0

Consider the variant shown here: U14A G25C What is its recorded self-cleavage? 0.418

Consider the variant shown here: C6A C38U What is its recorded self-cleavage? 0.354

Consider the variant shown here: U55A U62A What is its recorded self-cleavage? 0.104

Consider the variant shown here: G29C U53A What is its recorded self-cleavage? 0.116

Consider the variant shown here: C48A C65U What is its recorded self-cleavage? 0.189

Consider the variant shown here: C48A A49U What is its recorded self-cleavage? 0.172

Consider the variant shown here: A30C A43U What is its recorded self-cleavage? 0.128

Consider the variant shown here: G1A A11G What is its recorded self-cleavage? 0.0942

Consider the variant shown here: A28C G51A What is its recorded self-cleavage? 0.517

Consider the variant shown here: C3U G56C What is its recorded self-cleavage? 0.182

Consider the variant shown here: C18U U20G What is its recorded self-cleavage? 1.13

Consider the variant shown here: A41U G69A What is its recorded self-cleavage? 0.685

Consider the variant shown here: A24C G34A What is its recorded self-cleavage? 0.895

Consider the variant shown here: A28C A59U What is its recorded self-cleavage? 0.14

Consider the variant shown here: C18A U62A What is its recorded self-cleavage? 0.204

Consider the variant shown here: A11G C46A What is its recorded self-cleavage? 0.0804

Consider the variant shown here: A31G A49U What is its recorded self-cleavage? 0.11

The values you see were collected from the RNAGym collection of RNA variant scans (doi:10.7554/elife.80360).
